// provenance: paper PMC12416549

Target: T1, TNFR1 (Homo sapiens, UniProt P19438)
T1 chain: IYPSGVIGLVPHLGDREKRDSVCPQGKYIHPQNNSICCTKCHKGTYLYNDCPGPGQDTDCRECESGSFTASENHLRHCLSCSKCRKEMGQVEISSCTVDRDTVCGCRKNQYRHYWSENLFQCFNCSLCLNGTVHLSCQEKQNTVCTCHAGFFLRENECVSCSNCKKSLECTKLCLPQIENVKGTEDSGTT
Experiment: yeast display SC50
parameter: apparent Kd (screen) (nM)

[P] L79V (designed binder) SMEEEVEKAAKEYEKKKKEAIEKHLEKLKAKDKEAAERFLKELEEAAKEYAKDEAKTMSEEEAKRRAKKYKEKVLLSEVSEEEQKEIKEAEEKLVRTILKYVEEAAK
[Q] K73P (designed binder) SMEEEVEKAAKEYEKKKKEAIEKHLEKLKAKDKEAAERFLKELEEAAKEYAKDEAKTMSEEEAKRRAKKYKEPVLLSELSEEEQKEIKEAEEKLVRTILKYVEEAAK
*Q* For the pair P and Q , which entry has the numerically smaller recorded apparent Kd (screen)? Let me know the label of the one you choose.
*A* P
(P: 1.27 nM, Q: 5.31 nM)
